System: OVCAR-3 ovarian
Test: NCI tumour cell line growth inhibition, 48 h; in the data active = GI50 below about 0.43 µM; inactive = the rest
Hi there, use one of these labels in your reply, thanks! 1.0 (active), 0.0 (inactive)

Illustrative cases are given below, each with its answer.
>  <COMPOUND>
CN(C)CCNc1c2c(c(NCCN(C)C)c3c(CO)c[nH]c13)C(=O)c1ccccc1C2=O

>  <LABEL VALUE>
0.0

$$$$
>  <COMPOUND>
O=C(Nc1ccc(-c2ccnc(Nc3ccc(N4CCOCC4)cc3)n2)cc1)C1CCCN1 (centres undefined)

>  <LABEL VALUE>
0.0

$$$$
>  <COMPOUND>
FC(F)(F)c1cc(NC2=NCCN=C(Nc3cc(C(F)(F)F)cc(C(F)(F)F)c3)SS2)cc(C(F)(F)F)c1

>  <LABEL VALUE>
0.0

$$$$
>  <COMPOUND>
C#CCOc1cccc(Nc2ncc3ncn(C4CCN(C(=O)CCl)C4)c3n2)c1 (centres undefined)

>  <LABEL VALUE>
0.0

$$$$

# input # lookup: test call for CC1(C)N=C(N)N=C(N)N1c1ccc(OCCCCNC(=O)c2ccc(S(=O)(=O)F)cc2)c(Cl)c1
# output 0.0

# input Same read-out for O=c1[nH]cnc2nc(-c3ccc(N(CCCl)CCCl)cc3)[nH]c12 ?
# output 0.0

# input Same read-out for S=C(Nc1ccccc1)N1CCn2c1nsc2=Nc1ccccc1 ?
# output 0.0
